# Assay Remarks: yeast display, Sf9 membrane polyspecificity reagent, FACS + sequencing; frameworks hold sequencing errors
Recorded Metric: polyreactivity (PSR sort gate)

Examples from the recorded data:
>  <Sequence Content>
QVQLVESGGGVVQAGGSLRLSCAASGRTFKKYAMGWYRQAPGKEREFVARITYSAGSTYYADSVKGRFTISRDNAKNSVYLQMNSLKPEDTAVYYCASRFASSGPRWYSRHGEYDYWGQGTQVTVSS

>  <polyreactivity (PSR sort gate)>
low polyreactivity

$$$$
>  <Sequence Content>
QVQLVESGGGLVQAGGSLRLSCAASGSIFARNAMGWYRQAPGKERELVASITWSGASTYYADSVKGRFTISRDNAKNTVYVQMNSLKPEDTAVYYCAATDQKLSLDYSSYEYWGQGTQVTVSS

>  <polyreactivity (PSR sort gate)>
low polyreactivity

$$$$
>  <Sequence Content>
QVQLVESGGGLVQAGGSLRLSCAASGITFRYYAMGWYRPAPGKERELVASITSGGVNTYYADSVKGRFTISRDNAKNTVYLQMNSLKPEDTAVYYCATTYVGETLTGPGDYWGQGTQVTVSS

>  <polyreactivity (PSR sort gate)>
low polyreactivity

$$$$
>  <Sequence Content>
QVQLEESGGGLVQAGGSLRLSCAASGSTVGIYAMGWYRPAPGKERELVAAISSRGSTYYADSVKGRFTISRDNAKNTVYLQMNSLKPEDTAVYYCAAGYAWYNYWGQGTQVTVSS

>  <polyreactivity (PSR sort gate)>
high polyreactivity

$$$$
>  <Sequence Content>
QDQLVESGGGLVQAGGSLRLSCAASGGTFLTYAMGWYRQAPGKERELVAAISSGGSTYYADSVKGRFTISRDNAKNTVYLQMNSLKPEDTAVYYCNADPYSRFWGPDYGYWGQGTQVTVSS

>  <polyreactivity (PSR sort gate)>
low polyreactivity

$$$$
>  <Sequence Content>
QVQLVESGGGLVQAGGSLRLSCAASGYIFLRNAMGWYRQAPGKERELVAAIRRTGGSTYADSVKGRFTISRDNAKNTVYLQMNSLKPEDTAVYYCNAGYLLYYDYHLFYWVQGTQVTVSS

>  <polyreactivity (PSR sort gate)>
low polyreactivity

$$$$

Incoming: Give the measured polyreactivity (PSR sort gate) of "QVQLVESGGGLVQAGGSLRLSCAASGSTFNRYAMGWYRPAPGKDRELVAAISASGGSTYYADSVKGRFRISRDNAKNTVYLQMNSLKPEDTAVYYCATLHYVGQEHDYWGQGTQVTVSS" .
Outgoing: low polyreactivity

Incoming: Give the measured polyreactivity (PSR sort gate) of "QVQLEESGGGLVQAGGSLRLSCAASGLIFIQYAMVWNRQAPGKERELVAAISGSGVTTYYADSVNGSFTISRDKAMNTVYLQMTSLKPEDTAVYYCNAALRWKYDWGQGTQVTVSS" .
Outgoing: low polyreactivity

Incoming: Give the measured polyreactivity (PSR sort gate) of "QVQLVESGGGFVQAGGSLRISCAASGSTIGGNGKGWYRQAPGKEREIVATITWPSGSTYYADSVKGRFTISRDNAKNTVYLQMKSLKPEDTAVYYCAKNTSSRRNPWYYYWGQGTQVTVSS" .
Outgoing: high polyreactivity

Incoming: Give the measured polyreactivity (PSR sort gate) of "QVQLVESGGRLVQAGGSLRLSCAASGSIFRANAMVWYRQAPGNERELVAAISPNGGSTYYADSVKGRFTISRDHAKNTVYLQMNSLKPEDTAVYYCNTDHRNIWFRFKYDYWGQGTQVTVSS" .
Outgoing: high polyreactivity

Incoming: Give the measured polyreactivity (PSR sort gate) of "QVQLVESGGGLVQAGGSLRLSCAASGRTFSYYAMGWYRQAPGKERELVAAISWSGGSTYYADSVKGRFTISRDNAKNTVYLQMNSLKPEDTAVYYCNAPGYVWKGYDYWGQGTQVTVSS" .
Outgoing: high polyreactivity

Incoming: Give the measured polyreactivity (PSR sort gate) of "QVQLVESGGGLVQAGGSLRLSCAASGLTFDYYAMGWYRQAPGKERELVAAIDWSGGSTYYADSVKGRFTISRDNAMNTVYFQMNSLKPEDSAVYYCATESDDSGMDYWGQGTQVTVSS" .
Outgoing: low polyreactivity

Incoming: Give the measured polyreactivity (PSR sort gate) of "QVQLVESGGGLVQAGGSLRLSCAASGFIFRRNAMGWYRQAPGKERELVAAISAGGTSTYYADSVKGRFTISRDNAKNTVYLQMNSLKPEDTAVYYCNKAYYYDAEYDYWGQGTQVTVSS" .
Outgoing: high polyreactivity

Incoming: Give the measured polyreactivity (PSR sort gate) of "QVKLVETGGGLVQAGGSLRLSCAASGSTFGLYAMGWYRQAPGKERELVAAITWRGGRTYYADSVKGRFTISRDNAKNTVDLQMNSLKPEDTAVNFCAKGYDYYVRRYYYWGQGTQVTVSS" .
Outgoing: high polyreactivity

Incoming: Give the measured polyreactivity (PSR sort gate) of "QVQLVESGGGLVQAGGSLRLSCAASGFTFESYAMGWYRQAPGKERELVAAISWNGGSTYYADSVKGRFTISRDNAKNTVYLQMNSLKPADTAVYYCAARGRAPRFRRIGYDYWGQGTQVTVSS" .
Outgoing: high polyreactivity

Incoming: Give the measured polyreactivity (PSR sort gate) of "QVQLVESGGGLVQAGGSLRLSCAASGFIFDYNAMGWYRQAPGKERELVAAITSGGGSTYYADSVKGRFTISRDNAKNTVYLQMNSLKPEDTAVYYCNAVPSQHDEFDYWGQGTQVTVSS" .
Outgoing: low polyreactivity

Incoming: Give the measured polyreactivity (PSR sort gate) of "QVQLVESGGGLVQAGGSLRLSCAASGSTFGYYAMGWYRQAPGKESELVATINWSGGSTYYADSVKGRFTISRDNAKNTVYLQMNSLKPEDTAVYYCAADPYLQYYWAYDYWGQGTQVTVSS" .
Outgoing: low polyreactivity

Incoming: Give the measured polyreactivity (PSR sort gate) of "QVQLVESGGGLVHAGGSLRLSCAASGFTFIRYAMGWYRQAPGKERELVAAIRGTGTSTYYADSVKGRFTISRDNAKNTVYFQMNSLKPEDTAVYYCAAVHWWSSSLGMYYWGQGSQVTVSS" .
Outgoing: low polyreactivity

Incoming: Give the measured polyreactivity (PSR sort gate) of "QVQLVESGGGLVQAGGSLRLSCAASGFIFARYAMGWYRQAPGKERELVAAISVSGGSTYYADSVKGRFTISRDNAKNTVYLQMNSLKPEDTAVYYCAATRPFVSGWIMDYWGQGTQVTVSS" .
Outgoing: high polyreactivity

Incoming: Give the measured polyreactivity (PSR sort gate) of "QVQLVESGGGLVQAGGSLRLSCAASISSINAMGWYRQAPGKERELVAAIRWSGSSTYYADSVKGRFTISRDNAKNTVYLQMNSLKPEDTAVYYCAARYVRVGYDYWGQGTQVTVSS" .
Outgoing: high polyreactivity

Incoming: Give the measured polyreactivity (PSR sort gate) of "QVQLVESGGGLVQAGGSLRLSCAASGSTFYPYAMGWYRQAPGKERELVAAISRIGSRTYYADSVKGRFTISRDNAKNTVYLQMNSLKPEDTAVYYCNASYVLTGQRYGYWGQGTQVTVSS" .
Outgoing: low polyreactivity
